Each recorded value in this set is attributed to patent US9492554B2.

Test system: HIVNL4-3 in MT-2 cells
experimentNotes: HIV antigen synthesis in treated cells, immunofluorescence assay (IFA)
Type: cell-based
cond: Day 2; MT-2 cells; microM: DPA119 24, DPA52 25, DPA53 9, DPA54 17, DPA55 4, DPA56 8, DPA121 25; virus control 15%
observationType: percentage of cells positive for HIV antigens, Day 2

Completed entries (count: 2):
| compound | reportedMeasurement |
| --- | --- |
| CN1CCN(c2ccc3nc(-c4ccc(OCCn5cc(COCc6cn(C[C@H]7OC(OC8C(O)[C@H](N)CC(N)[C@H]8O[C@H]8OC(CN)[C@@H](O)C(O)C8N)C(O)C7O[C@H]7OC(CN)[C@@H](O)C(O)C7N)nn6)nn5)cc4)[nH]c3c2)CC1 (stereo partly drawn) | 5-7% |
| NCC1O[C@H](OC2C(N)C[C@@H](N)C(O)[C@H]2O[C@@H]2O[C@H](Cn3cc(CCCCCCc4cn(C[C@H]5O[C@@H](O[C@H]6C(O[C@H]7OC(CN)C(O)[C@H](O)C7N)C(N)C[C@@H](N)C6O)[C@@H](O)C5O[C@H]5O[C@@H](CN)C(O)C(O)C5N)nn4)nn3)C(O[C@H]3O[C@@H](CN)C(O)C(O)C3N)[C@@H]2O)C(N)[C@@H](O)C1O (stereo partly drawn) | 5-7% |

Here's the next entry for you.
May I ask what percentage of cells positive for HIV antigens, Day 2 has been recorded for C/C(CCc1cn(C[C@H]2O[C@@H](O[C@H]3C(O[C@H]4OC(CN)C(O)[C@H](O)C4N)C(N)C[C@@H](N)C3O)[C@@H](O)C2O[C@H]2O[C@@H](CN)C(O)C(O)C2N)nn1)=C(/C)CCc1cn(C[C@H]2O[C@@H](O[C@H]3C(O[C@H]4OC(CN)C(O)[C@H](O)C4N)C(N)C[C@@H](N)C3O)[C@@H](O)C2O[C@H]2O[C@@H](CN)C(O)C(O)C2N)nn1 (stereo partly drawn) ?
3-5%

* * *

Test system: cells
observationType: 5% Toxicity microM (µM)
// note: answer is a bare numeric in µM

May I ask what 5% Toxicity microM has been recorded for CN1CCN(c2ccc3nc(-c4ccc(OCCn5cc(CCCc6cn(C[C@H]7OC(OC8C(O)[C@H](N)CC(N)[C@H]8O[C@H]8OC(CN)[C@@H](O)C(O)C8N)C(O)C7O[C@H]7OC(CN)[C@@H](O)C(O)C7N)nn6)nn5)cc4)[nH]c3c2)CC1 (some centres unmarked) ?
94

* * *

Quick record of 5% Toxicity microM values for cells.
// note: answer is a bare numeric in µM

Completed entries (count: 2):
| compound | reportedMeasurement |
| --- | --- |
| CN1CCN(c2ccc3nc(-c4ccc(OCCn5cc(CCCCCCc6cn(C[C@H]7OC(OC8C(O)[C@H](N)CC(N)[C@H]8O[C@H]8OC(CN)[C@@H](O)C(O)C8N)C(O)C7O[C@H]7OC(CN)[C@@H](O)C(O)C7N)nn6)nn5)cc4)[nH]c3c2)CC1 (stereo partly drawn) [DPA122] | 46 |
| NCC1O[C@H](OC2C(N)C[C@@H](N)C(O)[C@H]2O[C@@H]2O[C@H](Cn3cc(CCCCc4cn(C[C@H]5O[C@@H](O[C@H]6C(O[C@H]7OC(CN)C(O)[C@H](O)C7N)C(N)C[C@@H](N)C6O)[C@@H](O)C5O[C@H]5O[C@@H](CN)C(O)C(O)C5N)nn4)nn3)C(O[C@H]3O[C@@H](CN)C(O)C(O)C3N)[C@@H]2O)C(N)[C@@H](O)C1O (stereo partly drawn) [DPA 54] | 69 |

May I ask what 5% Toxicity microM has been recorded for CN1CCN(c2ccc3nc(-c4ccc(OCCn5cc(COCc6cn(C[C@H]7OC(OC8C(O)[C@H](N)CC(N)[C@H]8O[C@H]8OC(CN)[C@@H](O)C(O)C8N)C(O)C7O[C@H]7OC(CN)[C@@H](O)C(O)C7N)nn6)nn5)cc4)[nH]c3c2)CC1 (stereo partly drawn) [DPA119] ?
94
